Test system: CYP1A
MEASUREMENT DESCRIPTION: Liver microsomal CYP1A enzymatic activity, inhibition or enhancement
CONDITION DESCRIPTION: nude, mouse, liver microsomes, pH 7.8, probe 7-ethoxyresorufin
# activity at 10 min, 10 µM annotations
Number in %, nothing else.

INSERT INTO results (molecule, readout_name, unit_string, test_result) VALUES
  ('CC(Cc1ccc(O)c(O)c1)C(C)Cc1ccc(O)c(O)c1 (stereo not drawn) [Nordihydroguaiaretic acid]', 'activity at 10 min, 10 µM', '%', 147),
  ('O=C(O)c1ccc(O)c(O)c1', 'activity at 10 min, 10 µM', '%', 123),
  ('CC1(C)[C@@H](O[C@H]2O[C@H](C(=O)O)[C@@H](O)[C@H](O)[C@H]2O[C@@H]2O[C@H](C(=O)O)[C@@H](O)[C@H](O)[C@H]2O)CC[C@]2(C)[C@H]3C(=O)C=C4[C@@H]5C[C@@](C)(C(=O)O)CC[C@]5(C)CC[C@@]4(C)[C@]3(C)CC[C@@H]12', 'activity at 10 min, 10 µM', '%', 99.9),
  ('COc1ccc(-c2coc3cc(O)ccc3c2=O)cc1', 'activity at 10 min, 10 µM', '%', 144);

Prompt: Which activity at 10 min, 10 µM value belongs to "O=c1c(-c2ccc(O)cc2)coc2cc(O[C@@H]3O[C@H](CO)[C@@H](O)[C@H](O)[C@H]3O)ccc12" ?
Response: 112

Values were extracted from patent US20030166583A1.
